Known CTG-3D luminescence at 96 h of a selection of compounds
- Test system: HCI-027 (organoid from a triple-negative breast cancer xenograft)
- procedure details: CTG-3D luminescence at 96 h relative to day-0 seeding control (ratio to day 0); higher = more growth / less cytotoxicity; PDxO 3D drug screen, 96 h, CTG-3D normalised to day-0 seeding control.
- test parameters: 10 µM; days in culture: 194
Answer using only a numeral; do not append any unit.

Sample NC1(C(=O)N[C@@H](CCO)c2ccc(Cl)cc2)CCN(c2nc[nH]c3nccc2-3)CC1 ; CTG-3D luminescence at 96 h observed: 1.2

Sample CNC(=O)c1cccc(-c2ccc3c(N4CCOC[C@@H]4C)nc(N4CCOC[C@@H]4C)nc3n2)c1 ; CTG-3D luminescence at 96 h observed: 0.803

Sample CN(Cc1cnc2nc(N)nc(N)c2n1)c1ccc(C(=O)N[C@@H](CCC(=O)O)C(=O)O)cc1 [methotrexate] ; CTG-3D luminescence at 96 h observed: 1.07

Sample CCN(c1cc(C#CCN2CCOCC2)cc(C(=O)NCc2c(C)cc(C)[nH]c2=O)c1C)[C@H]1CC[C@H](N(C)CCOC)CC1 ; CTG-3D luminescence at 96 h observed: 2.21

Sample COc1cc2c(Oc3ccc4[nH]c(C)cc4c3F)ncnc2cc1OCCCN1CCCC1 ; CTG-3D luminescence at 96 h observed: 0.0281

---

- System: HCI-025 (organoid from a breast cancer xenograft)
- procedure details: CTG-3D luminescence at 96 h relative to day-0 seeding control (ratio to day 0); higher = more growth / less cytotoxicity; PDxO 3D drug screen, 96 h, CTG-3D normalised to day-0 seeding control.
- test parameters: 12.5 pM; days in culture: 172
Known CTG-3D luminescence at 96 h of a selection of molecules
Answer using only a numeral; do not append any unit.

Worked cases, CTG-3D luminescence at 96 h given:
Sample C/C=C1\NC(=O)[C@H]2CSSCC/C=C/[C@H](CC(=O)N[C@H](C(C)C)C(=O)N2)OC(=O)[C@H](C(C)C)NC1=O [romidepsin] ; CTG-3D luminescence at 96 h observed: 1.84

Sample NC(=O)c1cccc2cn(-c3ccc([C@@H]4CCCNC4)cc3)nc12 [niraparib] ; CTG-3D luminescence at 96 h observed: 2.92

API: the following record is the query input.
Sample C=CC(=O)N1CCC[C@@H](n2nc(-c3ccc(Oc4ccccc4)cc3)c3c(N)ncnc32)C1 [ibrutinib] ; CTG-3D luminescence at 96 h observed: 2.25

---

Known CTG-3D luminescence at 96 h of a selection of compounds
- Test system: HCI-001 (organoid from a triple-negative breast cancer xenograft)
- procedure details: CTG-3D luminescence at 96 h relative to day-0 seeding control (ratio to day 0); higher = more growth / less cytotoxicity; PDxO 3D drug screen, 96 h, CTG-3D normalised to day-0 seeding control.
- test parameters: 100 µM; days in culture: 269
Answer using only a numeral; do not append any unit.

Worked cases, CTG-3D luminescence at 96 h given:
Sample O=C(/C=C/c1cccnc1)NCCCCC1CCN(C(=O)c2ccccc2)CC1 ; CTG-3D luminescence at 96 h observed: 0.0645

Sample CC(C)n1nc(-c2ccc3oc(N)nc3c2)c2c(N)ncnc21 ; CTG-3D luminescence at 96 h observed: 0.22

Sample Cc1cc(Nc2ncnc3ccc(NC4=NC(C)(C)CO4)cc23)ccc1Oc1ccn2ncnc2c1 ; CTG-3D luminescence at 96 h observed: 0.0618

API: the following record is the query input.
Sample CN(Cc1cnc2nc(N)nc(N)c2n1)c1ccc(C(=O)N[C@@H](CCC(=O)O)C(=O)O)cc1 [methotrexate] ; CTG-3D luminescence at 96 h observed: 2.3
